Target: Protein Tat (Human immunodeficiency virus type 1 group M subtype B (isolate PCV12)(HIV-1), UniProt P04326)
Sequence (P04326 whole entry): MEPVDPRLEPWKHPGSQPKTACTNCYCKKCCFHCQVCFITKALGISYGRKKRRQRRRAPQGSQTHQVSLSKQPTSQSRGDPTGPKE
Assay: Inhibition of HIV-1 nuclear regulatory protein Tat
readoutKind: IC50 (µM)
Number in µM, nothing else.

*Q* Given CC(=O)O[C@H]1CC[C@H]2[C@@H]3CC[C@]45OC4C(=O)C(S(C)(=O)=O)C[C@]5(C)[C@H]3CC[C@]12C (stereo not given in full) , state its recorded IC50.
*A* 2.6

*Q* Do the same for C[C@]12CCC3C(CC[C@]45OC4C(O)=C(C(N)=O)C[C@]35C)C1CC[C@@H]2O (stereo not given in full) please
*A* 14.3

*Q* Also CC(=O)O[C@H]1CCC2C3CC[C@]45O[C@H]4C(O)=C(C(N)=O)C[C@]5(C)C3CC[C@@]21C (stereo not given in full) , if possible.
*A* 2.6

*Q* # iterate: O=C1CN=C(c2ccc[nH]2)c2cc(Cl)ccc2N1
*A* 4

*Q* Field entry: C[C@]12CC[C@H]3[C@@H](CC[C@]45OC4C(=O)C(S(C)(=O)=O)C[C@]35C)[C@@H]1CC[C@@H]2O (stereo not given in full)
*A* 8.4

----------
test: Therapeutic index against HIV-1 whole cell assay was determined, expressed as the ratio of IC50s of cell cytotoxicity to that of HIV replication; details: human immunodeficiency virus 1, HIV-1 whole cell assay; read-out: Therapeutic index
Please respond with Met when measured selectivity ratio is strictly beneath 6, and with Not met in all other cases.

*Q* Take the compound CC(=O)O[C@H]1CCC2C3CC[C@]45O[C@H]4C(O)=C(C(N)=O)C[C@]5(C)C3CC[C@@]21C (stereo not given in full) and say whether its selectivity ratio is less than 6.
*A* Met

*Q* And then C[C@]12CC[C@H]3[C@@H](CC[C@]45OC4C(=O)C(S(C)(=O)=O)C[C@]35C)[C@@H]1CC[C@@H]2O (stereo not given in full) , what is it?
*A* Met

*Q* // next record C[C@]12CCC3C(CC[C@]45OC4C(O)=C(C(N)=O)C[C@]35C)C1CC[C@@H]2O (stereo not given in full)
*A* Not met

*Q* Cool, now CC(=O)O[C@H]1CC[C@H]2[C@@H]3CC[C@]45OC4C(=O)C(S(C)(=O)=O)C[C@]5(C)[C@H]3CC[C@]12C (stereo not given in full)
*A* Met
